System: MCF7 breast
Assay: NCI tumour cell line growth inhibition, 48 h
endpoint-name: TGI (µM)
Field: numeric (µM). Do not append units.

OCC1=C[C@@](COCc2ccccc2)(OCc2ccccc2)[C@@H](OCc2ccccc2)[C@@H]1OCc1ccccc1: 23.8

Lab note: next compound to report on.
**Q:** Give the measured TGI of CC(C)(CN1CCCCC1)C(=O)CC(SCCS(=O)(=O)O)c1ccc(Cl)c(Cl)c1 (stereo not given) .
**A:** 15.3

====

// values below are reported TGI
Test system: DU-145 prostate
Assay: NCI tumour cell line growth inhibition, 48 h

O/N=C1/CCCCC1NO (centres undefined): > 100 µM

**Q:** Give the measured TGI of "COc1ccc2c3c([nH]c2c1)[C@H]1C[C@H]2[C@H](C[C@@H](O)[C@H](OC)[C@H]2C(=O)O)CN1CC3" .
**A:** > 100 µM

**Q:** Give the measured TGI of "O=c1c2c(=NCCCN3CCCC3)cc3c(=O)n(CCCN4CCCC4)c(=O)c4c(NCCCN5CCCC5)cc(c(O)n1CCCN1CCCC1)c2c4-3" .
**A:** 7.79 µM

**Q:** Give the measured TGI of "C[C@@H]1CC[C@H]2C(CN3CCN(CC4=C(C(F)(F)F)O[C@@H]5O[C@@]6(C)CC[C@H]7[C@H](C)CC[C@@H]4[C@@]57OO6)CC3)=C(C(F)(F)F)O[C@@H]3O[C@@]4(C)CC[C@@H]1[C@]32OO4" .
**A:** > 100 µM
